- assayed-system: Long-chain-fatty-acid--AMP ligase FadD32 (Mycobacterium tuberculosis (strain ATCC 25618 / H37Rv))
- Sequence (O53580 whole entry): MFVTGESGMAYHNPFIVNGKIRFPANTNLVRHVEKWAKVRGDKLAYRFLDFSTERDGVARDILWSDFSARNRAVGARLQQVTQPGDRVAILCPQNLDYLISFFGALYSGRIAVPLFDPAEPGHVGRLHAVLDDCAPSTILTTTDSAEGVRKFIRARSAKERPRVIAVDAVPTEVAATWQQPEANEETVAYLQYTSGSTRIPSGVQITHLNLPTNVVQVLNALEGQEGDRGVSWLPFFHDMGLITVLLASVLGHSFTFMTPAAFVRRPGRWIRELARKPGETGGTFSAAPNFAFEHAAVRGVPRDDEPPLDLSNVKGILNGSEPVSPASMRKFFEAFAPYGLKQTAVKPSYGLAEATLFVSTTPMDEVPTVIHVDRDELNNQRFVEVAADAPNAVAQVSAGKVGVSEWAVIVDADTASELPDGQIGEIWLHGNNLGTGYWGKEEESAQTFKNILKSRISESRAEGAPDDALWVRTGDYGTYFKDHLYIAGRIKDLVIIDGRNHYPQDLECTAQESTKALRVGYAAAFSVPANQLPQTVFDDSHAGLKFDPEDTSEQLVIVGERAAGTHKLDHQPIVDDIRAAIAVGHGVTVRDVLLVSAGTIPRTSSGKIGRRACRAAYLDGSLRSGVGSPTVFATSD
- test-protocol: Uncompetitive inhibition of Mycobacterium tuberculosis H37Rv recombinant FadD32 assessed as inhibition constant in presence of lauric acid by Lineweaver-burk plot analysis
assay-endpoint: Ki

q: What value of Ki has been recorded for this entry: Oc1c(Br)cc(Br)cc1-c1cc(C(F)(F)F)no1
a: 48.1 µM
